These data points were gathered from a melting point compilation (Tetko et al.).

# melting point listing for each entry below

Past entries and their recorded results:
MOLECULE	EXPERIMENTAL READOUT	MEASURED VALUE
Fc1cc(F)c2cccnc2c1	melting point	76 to 78 °C
O=C(O)Cc1ccc(S(=O)(=O)C(F)F)cc1	melting point	139 to 141 °C
Cc1cc(CO)c2ccccc2n1	melting point	144 to 146 °C
O=C1CNc2ccc(Br)cc2N1	melting point	169 to 171 °C
Nc1cc(Br)cnc1Br	melting point	137 to 139 °C
Cc1cc(C)c(C(=O)CCl)c(C)c1C(=O)CCl	melting point	136 to 138 °C
Nc1ccnc2ccncc12	melting point	254 to 256 °C
CCn1c(=O)c2ccccc2n2c(CCl)nnc12	melting point	195 to 197 °C

Given the molecule `Nc1cc(F)cc(S(N)(=O)=O)c1` , what is its reported melting point?
153 to 155 °C

Given the molecule `Cn1nc(I)c2ncccc21` , what is its reported melting point?
186 to 188 °C

Given the molecule CC1Cc2ccccc2N1Cc1occc1C(=O)O (stereo unspecified) , what is its reported melting point?
186 to 188 °C

Given the molecule `N#Cc1cccnc1NCCO` , what is its reported melting point?
79 to 81 °C

Given the molecule CC(NC(=O)CC#N)c1ccccc1 (stereo unspecified) , what is its reported melting point?
115 to 117 °C

Given the molecule `COc1cc(C=O)ccc1OCC(=O)c1ccccc1` , what is its reported melting point?
127 to 129 °C

Given the molecule `O=C(O)c1cccc(NC(=O)c2ccc(Br)cc2)c1` , what is its reported melting point?
306 to 308 °C

Given the molecule `O=S(=O)(Cl)c1ccc(-n2cccn2)c(F)c1` , what is its reported melting point?
104 to 106 °C

Given the molecule `Cc1cs/c(=N\c2ccccc2)n1C1CCCC1` , what is its reported melting point?
51 to 53 °C

Given the molecule `CCCn1c(C)nnc1S` , what is its reported melting point?
129 to 131 °C

Given the molecule `CC1(C)CCc2[nH]c3ccccc3c2C1` , what is its reported melting point?
103 to 105 °C

Given the molecule `CN(C)c1ncnc(Cl)c1N` , what is its reported melting point?
114 to 116 °C

Given the molecule O=[N+]([O-])c1cccc(OCC2CO2)c1 (stereo unspecified) , what is its reported melting point?
63 to 65 °C

Given the molecule `O=C(O)C(=Cc1cccnc1)NC(=O)c1ccccc1` , what is its reported melting point?
189 to 191 °C

Given the molecule `Nc1ccc2c(c1)C(=O)CCC2` , what is its reported melting point?
126 to 128 °C

###

# melting point listing for each entry below

NC(=O)CC1CCNCC1 146 to 148 °C
COc1ccc(-c2nnc(S)n2N)cc1OC 204 to 208 °C
C=CCNS(=O)(=O)c1ccccc1F 100 to 102 °C

Given the compound `Cc1cccc2c(CC#N)c[nH]c12` , what is its reported melting point?
109 to 111 °C

Given the compound `O=Cc1ccccc1-n1cncn1` , what is its reported melting point?
113 to 115 °C

Given the compound `NS(=O)(=O)c1c(Br)cc(F)cc1Br` , what is its reported melting point?
174 to 176 °C

###

EXPERIMENTAL READOUT: melting point

Past entries and their recorded results:
COMPOUND	MEASURED VALUE
Nc1ccn(Cc2cccnc2)n1	88 to 90 °C
O=c1ccc2cc(S(=O)(=O)Cl)ccc2o1	117 to 119 °C
CC(C)S(=O)(=O)c1ccc(Cl)c(C(=O)O)c1	129 to 131 °C
O=C(O)CCCc1ccc2c(c1)-c1ccccc1C2	151 to 153 °C
COc1ccc(C(=O)O)c(Br)c1	189 to 191 °C
COc1ncccc1C(N)=O	130 to 132 °C

Given the compound `N#CCCn1cc(C(=O)O)c(-c2cccc([N+](=O)[O-])c2)n1` , what is its reported melting point?
242 to 244 °C

Given the compound `CC(=O)N(c1ccc(C(F)(F)F)cc1)c1nc(CCl)cs1` , what is its reported melting point?
115 to 117 °C

Given the compound `CCOc1cc(Cl)ccc1C#N` , what is its reported melting point?
81 to 83 °C

Given the compound `Cc1cc(C(=O)O)c(N)s1` , what is its reported melting point?
126 to 128 °C

Given the compound `CC(C)Oc1ccc(Cl)c(C(=O)O)n1` , what is its reported melting point?
70 to 72 °C

Given the compound `N#Cc1c(CCl)cn2ccccc12` , what is its reported melting point?
143 to 145 °C

Given the compound `Cc1nnnn1-c1ccc(Br)cc1` , what is its reported melting point?
116 to 118 °C

Given the compound `O=C(O)CCc1nc(-c2ccccn2)no1` , what is its reported melting point?
206 to 208 °C
